- target: T1, cynomolgus NKG2D-Fc fusion protein (cynomolgus; human, UniProt P61252 73-216)
- T1 construct: extracellular domain; also called cynomolgus recombinant NKG2D-Fc; cynomolgus recombinant NKG2D; not shown: human IgG1 Fc domain
- T1 sequence (looked up): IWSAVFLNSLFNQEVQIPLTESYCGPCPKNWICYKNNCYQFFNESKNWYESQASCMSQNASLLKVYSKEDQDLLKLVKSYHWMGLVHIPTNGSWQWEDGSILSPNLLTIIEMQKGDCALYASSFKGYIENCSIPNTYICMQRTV
- protocol.summary: ELISA on coated NKG2D-Fc
parameter: binding result

ADI-29404 (antibody, V domains shown, also called F04) VH: QVQLQQWGAGLLKPSETLSLTCAVYGGSFSGYYWSWIRQPPGKGLEWIGEIDHSGSTNYNPSLKSRVTISVDTSKNQFSLKLSSVTAADTAVYYCARARGPWSFDPWGQGTLVTVSS VL: DIQMTQSPSTLSASVGDRVTITCRASQSISSWLAWYQQKPGKAPKLLIYKASSLESGVPSRFSGSGSGTEFTLTISSLQPDDFATYYCEQYDSYPTFGGGTKVEIK = binds
ADI-29407 (antibody, V domains shown) VH: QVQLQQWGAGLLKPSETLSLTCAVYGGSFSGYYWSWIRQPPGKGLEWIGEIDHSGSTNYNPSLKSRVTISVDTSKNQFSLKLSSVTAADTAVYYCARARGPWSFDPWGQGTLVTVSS VL: DIQMTQSPSTLSASVGDRVTITCRASQSISSWLAWYQQKPGKAPKLLIYKASSLESGVPSRFSGSGSGTEFTLTISSLQPDDFATYYCQQYQSFPTFGGGTKVEIK = binds
ADI-29405 (antibody, V domains shown) VH: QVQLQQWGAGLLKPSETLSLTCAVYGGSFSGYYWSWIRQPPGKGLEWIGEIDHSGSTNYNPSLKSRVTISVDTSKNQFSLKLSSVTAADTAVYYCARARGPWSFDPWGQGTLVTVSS VL: DIQMTQSPSTLSASVGDRVTITCRASQSISSWLAWYQQKPGKAPKLLIYKASSLESGVPSRFSGSGSGTEFTLTISSLQPDDFATYYCQQYGSFPTFGGGTKVEIK = binds
